meta.source: the supplement of paper PMC9170038

# Tested on: MS2 coat protein
# assay.text: apparent KD of MS2 coat protein; higher = weaker reporter binding
# condition.summary: Eterna round: R107; input ligand: theophylline 2 mM
Consider the following sequences; for each one, report its apparent KD of MS2 coat protein.
Just the number please, in nM, no unit attached.

[in] Given the sequence CUUGUGGGCGGAAGGAGCGCGAUUACAUAACAUGAGGAUCACCCAUGUAAGAAAUUAUUCAUGCAGGUAGGUCGCCGUUCGUGGG [Same State Arginine B GF9] , write its reported apparent KD of MS2 coat protein.
[out] 24.1

[in] Given the sequence AGCACUGUGACGGCCGCCACUACAUAUAGGGUGGUCAGGCCCAUAAUACAUGAGGAUCACCCAUGUAGGACCGGGUCUCAGUGCA [Omei Trp Exc B A v12] , write its reported apparent KD of MS2 coat protein.
[out] 18.3

[in] Given the sequence GCGGUCGGAGUGCGGCGUGUUCCGCUCCGUCGAGGACCGGUACGGCCGCCACUCGACAUGAGGAUCACCCAUGUCCGACCGCGCG [#1 Exclusion - Tryptophan A Attempt #5 (HarryS)] , write its reported apparent KD of MS2 coat protein.
[out] 28.8

* * *

# System: K4 kissing-loop RNA reporter;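 also: bound reporter read as fluorescence of individual clusters on recovered sequencing chips by microscopy, with normalized cluster intensities fitted with a binding model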
# assay.text: apparent KD of K4 kissing-loop reporter; higher = weaker reporter binding
# condition.summary: Eterna round: R107; input ligand: none
Output 1.0 for apparent KD of K4 kissing-loop reporter not less than 500 nM; output 0.0 otherwise.

[in] Determine whether this sequence has apparent KD of K4 kissing-loop reporter no lower than 500 nM: ACGUCACGUAUACUGGUGGUUUCGAUCGAUACCAGUAGCGAGAGUUACCCUUGGCAGCGACAUGAGUGAUGUUUAUGUAUGAUGA [#13 K4 Theophylline A Exclusion]
[out] 1.0

[in] Determine whether this sequence has apparent KD of K4 kissing-loop reporter no lower than 500 nM: UUUGUAGAGGGAAGGAGCGUGAAAGAGAAAGAAUAUAGUGAUGUUAUAUAGAAGAAAGAAUCACAGGUAGGUCGCCCGGAGGAGG [SSArgB.E]
[out] 0.0

[in] Determine whether this sequence has apparent KD of K4 kissing-loop reporter no lower than 500 nM: GAUUUAGAGGCGGCCGCCACUAGUGAUGUUAGUGAUGUUUGAUACUGAAUAUAUCUGCGUUUAGAUAGGACCGGGCCAGAUGGUG [ddcmullin]
[out] 0.0

[in] Determine whether this sequence has apparent KD of K4 kissing-loop reporter no lower than 500 nM: AAAAUAAUCCAGUGAUGUUGGUAUUCAGAUACCAGCGACGAAAGUCGCCCUUGGCAGCUGUGGACGUACAAAAUAAGUACGUCCU
[out] 1.0

[in] Determine whether this sequence has apparent KD of K4 kissing-loop reporter no lower than 500 nM: GGACGCCGGUCGGCCGCCACUCACAGCAGUGAUGUUGCUGAGAAUGUAGCGGAGUGAUGUUCCGAGAGGACCGGGACUGCAGUUU [Same State Tryptophan B GF 9]
[out] 0.0

[in] Determine whether this sequence has apparent KD of K4 kissing-loop reporter no lower than 500 nM: ACGUCCGGAUUAAUCGUGGGCAUGGUCGAUACCAGAUCUUUAAUGAUCCCUUGGCAGCGACAUGAGUGAUGUUCAUGUGCGAUGA [KL-XTheo-A8 #analogue]
[out] 0.0

* * *

# Tested on: MS2 coat protein
# assay.text: apparent KD of MS2 coat protein; designed switch direction (-1 OFF switch, 1 ON switch): -1; higher = weaker reporter binding
# condition.summary: Eterna round: R95; input ligand: none
recorded.endpoint: apparent KD of MS2 coat protein (nM)
Just the number please, in nM, no unit attached.

[in] Given the sequence GGUUGGCGAGGAUAUACAUGAGGAUCACCCAUGUGAGAGAAAACAGUGAGGAAGAAAAGUAGAAGGCGCUGACG [salish99_ex3_r3_024] (puzzle: Exclusion 3) , write its reported apparent KD of MS2 coat protein.
[out] 48

[in] Given the sequence AAACCUGCCCAUGACCGCAAGCCUUUUGCUUGUCUUACCACAUGAGGAUCACCCAUGUGACAUGGGCUCCUUAUAAA [Solabixe] (puzzle: Sensor v3, turn-off variant 2) , write its reported apparent KD of MS2 coat protein.
[out] 13.5

[in] Given the sequence GAACGCCGGCAGGAUAUGGACAGCCAAAAGGCGCCAGAAGGGCCAACAUGAGGAUCACCCAUGUGUCCUGAUGG [Riceanon] (puzzle: Exclusion 6) , write its reported apparent KD of MS2 coat protein.
[out] 10.3

[in] Given the sequence GAUUAUGCGAGCUUUAGGGACAUGAGGAUCACCCAUGUUCGUCUUAUUGGUCUAGAUACACUGACAUACCUAAAUCU [JMF 58] (puzzle: Sensor v3, turn-off variant 1) , write its reported apparent KD of MS2 coat protein.
[out] 14

[in] Given the sequence UUUAAUUUUUUUUUUUUACAAGCUUUUUGCUCGUCUUAUACAUGAGGAUCACCCAUGUGGGUAAAGGGUAAAUUAUC [JMF 80] (puzzle: Sensor v3, turn-off variant 2) , write its reported apparent KD of MS2 coat protein.
[out] 20.9

[in] Given the sequence GUGGAACAUGAGGAUCACCCAUGUGAGGAUAUGUGUGAAUAGAGGAGAAGAAGAGAGAACAGAAGGCACGGAGG [JR_Exclu1_Sub066] (puzzle: Exclusion 1) , write its reported apparent KD of MS2 coat protein.
[out] 93.3

[in] Given the sequence GAUUGACAUGAGGAUCACCCAUGUGAGGAUAUCGGCCGGACCGUGCUGGCUUCCGUCGCGAGAAGGCGCAUAGG [Exclusion 1 V41] (puzzle: Exclusion 1) , write its reported apparent KD of MS2 coat protein.
[out] 38.9

[in] Given the sequence AAGUACCGUCACGAUAGUGAUGGUACAACAAGCAAAUAUACAUGAGGAUCACCCAUGUCCUCUUUUGCUCGUCUUGU [Sensor 3] (puzzle: Sensor v3, turn-off variant 2) , write its reported apparent KD of MS2 coat protein.
[out] 900

[in] Given the sequence GGUUGACAUGAGGAUCACCCAUGUGAGGAUAUGCGAGAGAAAAAAGUGAGGAAGAAAAGCAGAAGGCGCUGACG [salish99-ex1_r3_002] (puzzle: Exclusion 1) , write its reported apparent KD of MS2 coat protein.
[out] 13.5

[in] Given the sequence UUACAAUGUCACUUACAAGCUUUUUGCUCGUCUUAUAUUACAUGAGGAUCACCCAUGUAGAUCAUGUGGCGUGACCU [JL ViennaUCT Maridi mod 10] (puzzle: Sensor v3, turn-off variant 2) , write its reported apparent KD of MS2 coat protein.
[out] 151

[in] Given the sequence GAUUAUGCGAGCUUUAGGGACAUGAGGAUCACCCAUGUUCGUCUUGUUGAUCUAGGUGCACUGACAUACCUAAAUCU [JMF 88] (puzzle: Sensor v3, turn-off variant 1) , write its reported apparent KD of MS2 coat protein.
[out] 22.4

[in] Given the sequence AAAAAACAUGAGGAUCACCCAUGUCAGGAUAUCCGAAAAGAAAAGAAAAAGAAAAAAGGGAGAAGGGACAAAAA [April's ex-date #2] (puzzle: Exclusion 1) , write its reported apparent KD of MS2 coat protein.
[out] 33

[in] Given the sequence ACAAGCGAAAGGCUCGUCUUAUUUUUGUAGAGGUCCUAAACAUGAGGAUCACCCAUGUAGUGGCGAUGGUGGAGGUA [JR_SV3TOV2_Sub068] (puzzle: Sensor v3, turn-off variant 2) , write its reported apparent KD of MS2 coat protein.
[out] 103

[in] Given the sequence GAAAAGGUAGGAUAUACGAAUAAAAAGGGUAGAAAAAAAACACAUGAGGAUCACCCAUGUAGAAGGACCAAAAG [salish99_ex2_r3_085] (puzzle: Exclusion 2) , write its reported apparent KD of MS2 coat protein.
[out] 24.4

[in] Given the sequence AUUGAUGUUGAGGAUAUGCAUAUAUUUAUAAAAGCAGAAGGCGAUACAUGAGGAUCACCCAUGUUCAUGGAAGU [JR_E6_Sub094] (puzzle: Exclusion 6) , write its reported apparent KD of MS2 coat protein.
[out] 51.3

[in] Given the sequence AAUUACAAGCAAAGAUCCUACAUGAGGAUCACCCAUGUGCUCGUCUUAUAAAGUACUAUCACGAAAGUGAUAGUACA [Mat - Sensor v3 - turn-off var 1 - Eli Mod - D76] (puzzle: Sensor v3, turn-off variant 1) , write its reported apparent KD of MS2 coat protein.
[out] 232

[in] Given the sequence UACUUCCGAGGAUAUACAUGAGGAUCACCCAUGUGCUUCAGCAUUGAAAGAUGCAUGGGUAGAAGGCGGUAGUU [LRO-Excl3-18] (puzzle: Exclusion 3) , write its reported apparent KD of MS2 coat protein.
[out] 171

[in] Given the sequence GAAAAGGUAGGAUAUACGAAAAAAAAGGGUAGAAAAAAAACACAUGAGGAUCACCCAUGUAGAAGGACCAAAAG [salish99_ex2_r3_015] (puzzle: Exclusion 2) , write its reported apparent KD of MS2 coat protein.
[out] 27.2

[in] Given the sequence AUAUACAAGCAAAGAUCCUACAUGAGGAUCACCCAUGUGUUCGUCUUAUAAAGUACUAUCACGAAAGUGAUAGUACA [Mat - Sensor v3 - turn-off var 1 - Eli Mod - D80] (puzzle: Sensor v3, turn-off variant 1) , write its reported apparent KD of MS2 coat protein.
[out] 87.8

[in] Given the sequence UAUUACUCAGGAUAUAUGAUGUGAAACAUGAGGAUCACCCAUGUAAUAUUAUGGAUGUAAAUAGAAGGGAGAUUAU [Mat - Exclusion 5 - JL mod - D19] (puzzle: Exclusion 5) , write its reported apparent KD of MS2 coat protein.
[out] 64.6
